protein stability index overview
# Test system: Saccharomyces cerevisiae;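 also: PSI is a weighted mean of sequencing reads over stability bins, variants kept only with over 10 reads, mCherry proximal and sfGFP distal, peptide attached via GGGS linker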
# EXPERIMENTAL DETAILS: protein stability index of tFT-peptide fusion (C-terminal peptide) (PSI (0-1 scale)); higher = more stable (slower turnover)
# CONDITION SET: genetic background: wild type; temperature: 37 C

SEQUENCE CHAIN: IIVLNIGSVIFC
protein stability index: 0.549
--
SEQUENCE CHAIN: IERLRLRTRIIC
protein stability index: 0.134
--
SEQUENCE CHAIN: LVLFVVGGWVSL
protein stability index: 0.54
--
SEQUENCE CHAIN: ALSRFFSVFLLV
protein stability index: 0.454
--
SEQUENCE CHAIN: PLSSHIPVHEAR
protein stability index: 0.688
--
SEQUENCE CHAIN: VWVISLCIGGVG
protein stability index: 0.381
--
SEQUENCE CHAIN: CQVSEWIRYRFL
protein stability index: 0.386
--
SEQUENCE CHAIN: IILAIRLLVDTL
protein stability index: 0.238
--
SEQUENCE CHAIN: NYCLYFKLSRLS
protein stability index: 0.429
--
SEQUENCE CHAIN: LLLRQVFSLGVF
protein stability index: 0.312
--
SEQUENCE CHAIN: FCTVYFVCVWEM
protein stability index: 0.362
--
SEQUENCE CHAIN: GFFLCTCIRFWV
protein stability index: 0.421
--
SEQUENCE CHAIN: CWILLFGCVWVG
protein stability index: 0.336
--
SEQUENCE CHAIN: LLLVSLAVPLSL
protein stability index: 0.539
--
SEQUENCE CHAIN: WGCTGGRGRLVC
protein stability index: 0.555
--
SEQUENCE CHAIN: GFLRTVHFLLLG
protein stability index: 0.47
--
SEQUENCE CHAIN: FLFLFIFYFFCC
protein stability index: 0.401
--
SEQUENCE CHAIN: CTAWWVKGVAVK
protein stability index: 0.624
--
SEQUENCE CHAIN: GLLGRCPVVVFG
protein stability index: 0.463
--
SEQUENCE CHAIN: CKGPPVKFIVLM
protein stability index: 0.243
--
SEQUENCE CHAIN: RVTRLDAIYFRI
protein stability index: 0.323
--
SEQUENCE CHAIN: TLLMVSMTVRPL
protein stability index: 0.398
--
SEQUENCE CHAIN: AIMFLVLGYVFF
protein stability index: 0.452
--
SEQUENCE CHAIN: RVGWVVVLGCVG
protein stability index: 0.55
--
SEQUENCE CHAIN: RPPPAANFTRSS
protein stability index: 0.679
--
SEQUENCE CHAIN: IIFCVRVVGGDL
protein stability index: 0.529
--
SEQUENCE CHAIN: FFSFLFLLLFGA
protein stability index: 0.617
--
SEQUENCE CHAIN: FLLCGVFFFFFV
protein stability index: 0.319
--
SEQUENCE CHAIN: PWFSWLLYSFLF
protein stability index: 0.551
--
SEQUENCE CHAIN: GFFCVWSLLFFN
protein stability index: 0.385
--
SEQUENCE CHAIN: FFVFVVFFCFGL
protein stability index: 0.41
--
SEQUENCE CHAIN: PHGLKPHCPTPS
protein stability index: 0.73
--
SEQUENCE CHAIN: WRGALHPTPVAA
protein stability index: 0.4
--
SEQUENCE CHAIN: FRFSSLLYILLS
protein stability index: 0.0868
--
SEQUENCE CHAIN: DLRFAWLLSCFS
protein stability index: 0.476
--
SEQUENCE CHAIN: FLLASSRRICCS
protein stability index: 0.47
--
SEQUENCE CHAIN: VWRLCFPFALVR
protein stability index: 0.141
--
SEQUENCE CHAIN: ACVRLVLCVCRV
protein stability index: 0.375
--
SEQUENCE CHAIN: LFSPLKGILSVM
protein stability index: 0.508
--
SEQUENCE CHAIN: GFTIFFFFFFFV
protein stability index: 0.264
--
SEQUENCE CHAIN: PPLTRVPLSISA
protein stability index: 0.46

The reported measurements were obtained from the supplement of paper PMC10724198.
